EXPERIMENTAL_SYSTEM: pre-pro-human insulin
MEASURED_PARAMETER: Selectivity

**Q:** Consider the protein trypsin variant SEQ ID NO: 75 (protein) IVGGYTCAANSIPYQVSLNSGSHRCGGSLINSQWVVSAAHCYKSRIQVRLGEHNIDVLEGNEQFINAAKIITHPNFNYNTLDNDIMLIKLSSPATLNSRVATVSLPRSCAAAGTECLISGWGNTKSSGSSYPSLLQCLKAPVLSDSSCKSSYPGQITGNMICVGFLEGGKDACQGDSGGPVVCNGQLQGIVSSGYGCAQKNKPGVYTKVCNYVNWIQQTIAAN and give its measured Selectivity.
**A:** >90%

**Q:** Consider the protein trypsin variant SEQ ID NO: 48 (protein) IVGGYTCAANSIPYQVSLNSGSHMCGGSLINSQWVVSAAHCYKSRIQVRLGEHNIDVLEGNEQFINAAKIITHPNFNGNTLDNDIMLIKLSSPATLNSRVATVSLPRSCAAAGTECLISGWGNTKSSGSSYPSLLQCLKAPVLSDSSCKSSYPGQITGNMICVGFLEGGKDACQGDSGGPVVCNGQLQGIVSSGYGCAQKNKPGVYTKVCNYVNWIQQTIAAN and give its measured Selectivity.
**A:** >80%

**Q:** Consider the protein trypsin variant SEQ ID NO: 59 (protein) IVGGYTCAANSIPYQVSLNSGSHRCGGSLINSQWVVSAAHCYKSRIQVRLGEHNIDVLEGNEQFINAAKIITHPNFNGNTLDNDIMLIKLSSPATLNSRVATVSLPGSCAAAGTECLISGWGNTKSSGSSYPSLLQCLKAPVLSDSSCKSSYPGQITGNMICVGFLEGGKDACQGDSGGPVVCNGQLQGIVSSGYGCAQKNKPGVYTKVCNYVNWIQQTIAAN and give its measured Selectivity.
**A:** >90%

Cited source: patent US20230303994
